Assay: soluble on expression in E. coli; label from the status in PepcDB or PDB records
measurement.name: soluble on expression in E. coli

MSSAKHFTEVLIGGKVYTLSGFEGEEYLQKVSSYLNHKITECANSEGYRKQSADTRNVLLALNIADDYFKAKKQGDSLESDIELKDKEMYDLKHELISVQIKLENAEKELAKMKEENNDLQMQIVKLETEMKNRRK not soluble
ENIEVHMLNKGAEGAMVFEPAYIKANPGDTVTFIPVDKGHNVESIKDMIPEGAEKFKSKINENYVLTVTQPGAYLVKCTIHYAMGMIALIAVGDSPANLDQIVSAKKPKIVQERLEKVIASAK soluble
MSEIHAGGCHCGRLRYQFDAPLKDIAHCHCSICWRTSGATVVTWISVPLASFKWLTGSPAAYDSAATCVRYFCGNCGAHMALFTRNSPNEMDVTIATLDQPELAVPSRHIWIENRLPWLHLDEDLPGDEGEP not soluble
MAHHHHHHMGKRDLQKEKQQELAAIWGSEVQGDARFPKRRRAAQKQGLGAVENNDDVDTDVLSDIVSDAGSITSKHSDTAKKETRKTAKKKSTNYRLHCFVEPGTELNAVRTVFEAYEPKVEIRTAQKGNLLNKSQFAVLTFRNKAMALHAVKKLDGTNQRDLLGVSSLKLNLMLTRQQSKIARKTFNRKIRQEKERNQLMEEQADLAFIRNFLKQHSGAKKDKQNGKALSLS soluble

* * *

Assay: soluble on expression in E. coli; label from the status in PepcDB or PDB records
measurement.name: soluble on expression in E. coli

APTSSNDTGKTVVAVTACPTGIAHTYMAAEKLQETANKLGVRIKVETNGSRGVENRLTDKEIAEADGVIIAADVQVDMPRFDGKHLIAKPVAAGIHKPEELIKEAISGNAPVYKAESGSEATEST not soluble
MAGLGHPAAFGRATHAVVRALPESLGQHALRSAKGEEVDVARAERQHQLYVGVLGSKLGLQVVELPADESLPDCVFVEDVAVVCEETALITRPGAPSRRKEVDMMKEALEKLQLNIVEMKDENATLDGGDVLFTGREFFVGLSKRTNQRGAEILADTFKDYAVSTVPVADGLHLKSFCSMAGPNLIAIGSSESAQKALKIMQQMSDHRYDKLTVPDDIAANCIYLNIPNKGHVLLHRTPEEYPESAKVYEKLKDHMLIPVSMSELEKVDGLLTCCSVLINKKVDS not soluble

* * *

Experiment: soluble on expression in E. coli; label from the status in PepcDB or PDB records
measurement.name: soluble on expression in E. coli

ANNGAHRDMDLNTFIASAEAIAPYLHSFVSAGWESAGNPAAQLLSALRPIGIEAEQAMFAATQGVNTHKGMIFILGLICGSVGWLKANQLKIDAQHIGETIRQACQFLVIDELKAKRDCEPETAGERIYRQYGLTGARGEAASGLAMVMQHALPAYQACLTKGASTEQALWHTLLVLMANNNDSNLVSRGGLAGLHFVQEQAQQLLAKGGFLYQEIEQALTALDSVLIEKHLS not soluble
MTPLGPASSLPQSFLLKCLEQVRKIQGDGAALQEKLCATYKLCHPEELVLLGHSLGIPWAPLSSCPSQALQLAGCLSQLHSGLFLYQGLLQALEGISPELGPTLDTLQLDVADFATTIWQQMEELGMAPALQPTQGAMPAFASAFQRRAGGVLVASHLQSFLEVSYRVLRHLAQP soluble
MGSDKIHHHHHHMKTYMISLHGAYENENFGDELLIAIQAKWINDEGYDVCLPFASKVYREQIPSLDKEGSRGLEESEKLIYTGGGYFGEPNHKTFKWGINFFRKKHHIPAKIFKKNNKKYLICGVGAGPITNPITRYTVVKICNFAEKVVVRDTTSYDYLIKYGVIPEKIQVGADVVLSLTIHDLPKGSIEKAKKTLNKDNKNFYLGIHIGVSPDDENYKTNVKAAMESLANVIKRNSVVPVLIADKRNATSTQEKAIEYMSSLLDEEPIVYRHSNIWETCAFLSSLDGVVTTKLHVGITAYTLGTRTFGIAAHQKTRRFYNQIKKENYFYELKEVDNGIESSLELFIKDRYWDEETLQAKKELNERALLCKREMLQFLES not soluble
SLPPLNSLISQFEGRVYDQIINFNWHSKPENLKVIIIDIDEKSLEQEGRWPWPRSKIAELLNKLQENGVVTVGFDIVMSEAETNYALGLIEKLSQFSGKMTTDQKQLIATLNSVANQVDNDQTLVNALGKNNAILGFFFHNSEGIRKGSLPPPLRDTDSNPLLASKLSVYQFTNFNGNLAAFTAAATSGGFVTNLPDKDGVVRHALLLANYKNNLYPSLSLAIAMNYLLTDKVNLKKYNNELTGIELDGLQIPTNRKGQILIPFWGGPGTLNYYSATDILNNQFNPDELAGSIALVGSSITLLSDLHHTPVAQLFPGVEIVGNIVKGLVEQKIPREFDWESLQG not soluble
GMDVEIVEELSKMLAGRKAVTEEEIRRKAIRCALKIMGARLVGIDAELIEDVTCSLIDCPITLKSLHFSEKVKIGDVLFYHPHVIKPEKEDFEQAYFEYKQSKKFLDAFDIMREVTDRFFEGYEAEGRYMRKYTKDGRNYYAFFSTIDDTFEDVDIHLRMVDEVDGDYVVIVPTENELNPFLKFFKQYSEDAKRAGLKIWVVNPDEKTIDPFIGYPKDFRLLKGFKNPKAAALVSAYWRVTVTDLD soluble
SDPEISEQDEEKKKYTSVCVGREEDIRKSERMTAVVHDREVVIFYHKGEYHAMDIRCYHSGGPLHLGEIEDFNGQSCIVCPWHKYKITLATGEGLYQSINPKDPSAKPKWCSKGVKQRIHTVKVDNGNIYVTLSKEPFKCDSDYYATGEFKVIQSSS soluble
MNEIKLKYDTQVSVVHYESLDSRSFKSFSMPKWSKLVNKLSVPIEANYKYARGVAVYGDIKDNTNDHGEIIKKHRNDKNVIYRNVIVLDYDEINDVKQLHDAISSVLSSVAWYWHTSFSHTTEQARIRLYIPLNERISADDYRKYTKVLANKIGHKVDEGSYQPSRCFALPVIQKGHIFIKRVNDCPIMDVDMLEQWSKEYKQSNGSPNIKGYTRRDSAYWRDIAFGVSEGERNSTLASITGYLLRRYVDPNLVYGLVSAWASVCKPPINQSEVNNTFKSILKKDSKNS not soluble
MSEVTDLTVIEIKPEQAPVLYVAGGLDAYLEQIRQAVNEVPDLSTKKGRDRVASLAAQVSRSKTAIEKPGREYLKRLKEAVRPAEAEIKRFVDACDELRDATRRPLTEWEAEQERIKAEEAMNALHAEALEMNIKFDQELAAKFEADHEMALLMNKDFDRDREEQRRLAEQARREHEERIKREAAEQARRDAEAKHKAEIEAAARREAEEKARAELAERQRIEAEQRAEREKKETEERARREKEEAVAAERRRQEEAEAARLVEEQRKAEEEARRAADKEHRRTVNRRVYADLIAQGIPEEYAQKAVLAIAGGKVQDAHIKY not soluble
MAHHHHHHMPHIPRNHYLVVHDAIRKLLGPDAQLAAFVKAQHAFQCDMLVNDARTDPEELTRAGARHSGGGIGDDAAAKAGVGELARGLQAVLGICDVVPHTRRVDVIFRDRSLIQLALGAAKRDLPYALETGADVNQEPDWRLRNRLRISLGYDEELFLAQCTRSMNVAARILEKCAFDYARYSALMSTNAAMAAMYEASGQRWQAVLPPVTYWQAHCYSLMKAYPCRHYQQIVATVEHNFAAYYGEFPMTNPYCDGEDLNTIQVVRWLCEAFNAGAAVSHVTSAASSPVTVNEWQTVDCSMPAAMEDGDAEKGAAVMDNMADGRSSQEGRH not soluble
MGSDKIHHHHHHMNQEKIQELVSRSQQDDKRAFALLVSEFQPLVFRLAFRLLCDEEEARDITQETFVKVWLSLKTYNQENRLSTWLYKITCNTCYDRLRSLRHSPLDNESAFSDSVNIPSDDHIEISLSNKQLKELILRYTNELPPQQKLVFTLRDVEELEVAEVQIITGLSPEKIKSTLYLARKNIRNKMNQIDPDL not soluble
RLLKVPVFVHESDLSMGLANKIAYKFATIMYTTFEQSKDLIKTKHIGAVTKVMDCKKSFENTDLTSIKEAFDPNLKTLLFIGGSAGAKVFN not soluble

* * *

Test: soluble on expression in E. coli; label from the status in PepcDB or PDB records
measurement.name: soluble on expression in E. coli

MADKSTEVEKAIDPIIDLGNLLFIDREPIQGDASEGLEERARKNTQLLFNNIWQLEQKRVEEAIIVTLPPATYRLPREKRLPEKKEPTKWEKYAAEKGIEKRKKDKKVFDEATKEWKPTYGYRRGNDDTKDWLIEIPDNAEDPNKDFFAERREKKKERVAKNDMQRMKNLARQMKTTVKSGPSTEKMIGVGVDAKEKSKQQVRFAVDRAKLATASAGKFQEGLKGEKANVKTGKKRKFEANEAPVSGEKERALQILQRMKSKKAKIVEEKAAAVAGPLREKKEKSERKGAKDQTRQKSQIHRQQWFKNKVDGKKKGTGGAGKKGANKAKARKG not soluble
MGSDKIHHHHHHMALPTQLVYPGFEKIPRFWDNEQQSQVARVDPGEYYYSCQDEFIYTRLGSCVAACIWDPLMGIGGLNHFLLPEKVLHEDWHQLTSYSCRYGNWAMEQLINGILSAGGLKSRLKAKIFGGATLGRISVLNVGQSNIAFVREYLALEGIPVMSEDLGGPWPRKVLFHPQSGRVRLKRLEMTGMAQIEREEEAYLNDVAEHAKVPEPGSIELF not soluble
MTSIQQRDAQSVLAAIDNLLPEIRDRAQATEDLRRLPDETVKALDDVGFFTLLQPQQWGGLQCDPALFFEATRRLASVCGSTGWVSSIVGVHNWHLALFDQRAQEEVWGEDPSTRISSSYAPMGAGVVVDGGYLVNGSWNWSSGCDHASWTFVGGPVIKDGRPVDFGSFLIPRSEYEIKDVWYVVGLRGTGSNTLVVKDVFVPRHRFLSYKAMNDHTAGGLATNSAPVYKMPWGTMHPTTISAPIVGMAYGAYAAHVEHQGKRVRAAFAGEKAKDDPFAKVRIAEAASDIDAAWRQLIGNVSDEYALLAAGKEIPFELRARARRDQVRATGRSIASIDRLFEASGATALSNEAPIQRFWRDAHAGRVHAANDPERAYVIFGNHEFGLPPGDTMV soluble
MAVSAYFHIPFCAHICHYCDFNKVFAAGQPIDDYLRAMDKEMAWTAAEFGSQLKTLFIGGGTPTVLEPAQLGCLLASIHRHFQFDPQTAEFTVEANPDGLTKEKLAILRDAGVNRLSLGVQTFDDQLLQTIGRTHRRGDVIRAVALAREVGFQNISIDVMYGLPGQTLEQFTADLEAAFSLHVPHLSAYSLILEPRTIFYNEWRKGRLRLPGEEMEAEMYEAAMEQMAAAGYRQYEISNYALPGFESRHNLTYWNNEEYYGIGAGAHSYIDGVRRANIGPIRHYISAIERGQWPHRDVRRLTTREQMEEEMFLGLRKTEGVSKACFRQKFGRDLHDIFGAAIRREIENGRLEETETHIRLTKRGKLLGNEVFAAFLGEM not soluble
MTALTWTDERVEQLKKLWEGGLSASQIAAELGNVTRNAVIGKVHRLGLSGRAKSPTSAAPRPRKARPVQQMMRVTRPVARGNTALAHAFEVEAEPDPIAFDNVVPMNQRLSLLELNEATCHWPVGDPSSPEFFFCGGKSLPGLPYCAHHSRIAYQPVGDRRRAAPKTTRLEHHHHHH soluble
MGSDKIHHHHHHMSYSLQKSMVAKVVGLSLVMLLAACSSDQRYKRQVSGDESYLKAPAQHVLNTPAGMILPVQNGDFDIPPVTLNGAVGKELDIRPPVQPLALLNGSRTQTSGDTATLLLENSAQNSQIWSQVIRVLQDNAFTIANRQDASQTLTTDWISWPREDENVPYQGRYQISVQQQGYQVALIVKLLGLQLNGQPVTTSDQTQRYAGLMLNVLSNGLDSQATARENALANRTIGSLDVQSGADDTGLPLLIVRGPYTVVWDRLPVALDKIGMKVNDRSRPQGSVSVTYRAPSGGTWDDLGAKNPELPNGDYKLQVGDLDNRSSLQFIDSKGHTLTQSQNDALVAVFQAAFSK not soluble
GGSGPLKPEEHEDILNKLLDPELAQSERTEALQQLRVNYGSFVSEYNDLEEKVAHAKEENLNMHQMLDQTLLELNNM soluble
MINDDILAHARQCAPAESCGYVVRTAQGERYFPCENLSAEPTMYFRISPEDYLNARNRGDIVALVHSHPDGKPCLSSADRTLQIQSGLDWWLVCDNRIHKFRCVPHLTGRQFEHGVTDCYTLFRDAYHLAGIDMPDFDREDDWWSQGKSLYLDHLEAAGFYRVNPEDAQPGDVLICCFGSPTPNHAAIYCGNGELLHHIPEQLSKREGYNDKWQRRTHSIWRHRQWCESAFTGIYNDLESASASA not soluble
MAHHHHHHMEGVSNILSIAGSDSCGGAGIQADIKTAMGLGCHCCTALVVLTAQNTKEVKRIVEIEEAFIVDQLDSIFADVTIDVVKLGVLYSKKIISLVSQYIVQMNKKRGKKLLVVFDPVFVSSSGCLLVENLEYIKFALDLICPISCIITPNFYECKVILQALDCQMDLSKANMTELCKLVTRMLDINACLLKSCNVGENSAEENEVYAVDHLCIRKVGSIPEGEVIQRDAGELGQSAPGGVTYLYDVYKLRSKRKPGVDVHGTGCTLSTAIACYLAKKHNILQSCIESKKYIYNCIRYAYPFGSKSQGLNHLKASQELPTFTDLEVIPIVQDSP soluble
NKDLLWTTSLNIGHNKNKLTKLDGEQQEIISGVSIHRVGQPYYSIYAYEYAGVDPQTGKELYYINGEDGSRETTTNSAAANKTIIGSIEPKVQGGLTNYVSWKFIDFNLTLTYSLGGHAYDYATWLQSNGGTYHYLGNVPAYYKMEDTWQKTGDNAKLPQFAYGNANKASSRWLMSTDHLRVKNMTLGFTLPQSWSSKAGISKLRAYVSGNNLLTWKKKSLYVDPEVPVDGLCTFETPALRTVTFGLEIGF not soluble
